For each record, write down the corresponding EC50.
Experimental Target: UniProt:P11229
Sequence (P11229 whole entry): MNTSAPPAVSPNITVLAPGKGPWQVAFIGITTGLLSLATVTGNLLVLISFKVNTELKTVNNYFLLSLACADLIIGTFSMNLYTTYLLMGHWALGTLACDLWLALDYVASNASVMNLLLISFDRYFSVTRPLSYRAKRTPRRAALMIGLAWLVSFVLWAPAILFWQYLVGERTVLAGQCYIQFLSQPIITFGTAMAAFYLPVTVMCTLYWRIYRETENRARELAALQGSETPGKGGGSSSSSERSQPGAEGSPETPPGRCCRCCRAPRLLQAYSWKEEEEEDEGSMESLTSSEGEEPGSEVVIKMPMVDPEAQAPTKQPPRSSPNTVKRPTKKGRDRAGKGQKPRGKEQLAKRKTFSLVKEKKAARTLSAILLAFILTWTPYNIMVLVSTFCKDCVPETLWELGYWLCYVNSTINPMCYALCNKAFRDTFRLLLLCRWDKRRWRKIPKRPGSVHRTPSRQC
Assay Comment: Human M1 calcium mobilization FLIPR assay
Measurement Context: hM1 expressed in CHO cells, intracellular Ca2+ release (FLIPR)
Numeric answer only, unit nM assumed.

Per the records, this compound ( CCOC[C@H]1CC[C@@H](N2CCC(N3C(=O)COC4CCCCC43)CC2)CC1 (single isomer, unassigned) [Example 34] ) has EC50 equal to 80

Noted for CC(C)OCC1CCC(N2CCC(N3C(=O)NC[C@H]4CCCC[C@@H]43)CC2)CC1 (single isomer, unassigned) [Example 04] : its EC50 reads 3.2

EC50 reading for CC(C)OCC1CCC(N2CCC(N3C(=O)CO[C@H]4CCCC[C@@H]43)CC2)CC1 (mixture of isomers) [Example 15] : 10

The compound identified as CCOC[C@H]1CC[C@@H](N2CCC(N3C(=O)CO[C@@H]4CCCC[C@H]43)CC2)C1 [Example 46] registered its EC50 at 290
